subjectOfTest: plasma purified human complement protein C3 (human) (UniProt P01024)
Sequence (P01024 23-667, chain 1 of 2): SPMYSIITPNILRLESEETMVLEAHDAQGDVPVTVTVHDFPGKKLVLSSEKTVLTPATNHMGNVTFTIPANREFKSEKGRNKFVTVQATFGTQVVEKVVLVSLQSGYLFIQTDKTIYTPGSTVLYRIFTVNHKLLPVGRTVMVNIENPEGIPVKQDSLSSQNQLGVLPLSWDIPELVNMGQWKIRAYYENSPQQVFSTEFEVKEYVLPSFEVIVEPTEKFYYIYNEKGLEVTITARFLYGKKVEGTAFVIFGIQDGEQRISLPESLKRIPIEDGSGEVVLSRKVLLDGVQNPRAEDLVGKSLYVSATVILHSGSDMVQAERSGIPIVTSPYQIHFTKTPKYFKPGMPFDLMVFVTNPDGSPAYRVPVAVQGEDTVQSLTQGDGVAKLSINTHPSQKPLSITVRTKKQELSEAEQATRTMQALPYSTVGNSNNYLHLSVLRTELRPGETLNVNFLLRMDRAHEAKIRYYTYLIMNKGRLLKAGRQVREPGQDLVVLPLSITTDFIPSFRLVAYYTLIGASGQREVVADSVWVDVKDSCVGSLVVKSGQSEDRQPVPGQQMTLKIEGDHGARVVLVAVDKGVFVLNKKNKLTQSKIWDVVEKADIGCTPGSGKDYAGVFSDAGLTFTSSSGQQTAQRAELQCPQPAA
Sequence (P01024 672-1663, chain 2 of 2): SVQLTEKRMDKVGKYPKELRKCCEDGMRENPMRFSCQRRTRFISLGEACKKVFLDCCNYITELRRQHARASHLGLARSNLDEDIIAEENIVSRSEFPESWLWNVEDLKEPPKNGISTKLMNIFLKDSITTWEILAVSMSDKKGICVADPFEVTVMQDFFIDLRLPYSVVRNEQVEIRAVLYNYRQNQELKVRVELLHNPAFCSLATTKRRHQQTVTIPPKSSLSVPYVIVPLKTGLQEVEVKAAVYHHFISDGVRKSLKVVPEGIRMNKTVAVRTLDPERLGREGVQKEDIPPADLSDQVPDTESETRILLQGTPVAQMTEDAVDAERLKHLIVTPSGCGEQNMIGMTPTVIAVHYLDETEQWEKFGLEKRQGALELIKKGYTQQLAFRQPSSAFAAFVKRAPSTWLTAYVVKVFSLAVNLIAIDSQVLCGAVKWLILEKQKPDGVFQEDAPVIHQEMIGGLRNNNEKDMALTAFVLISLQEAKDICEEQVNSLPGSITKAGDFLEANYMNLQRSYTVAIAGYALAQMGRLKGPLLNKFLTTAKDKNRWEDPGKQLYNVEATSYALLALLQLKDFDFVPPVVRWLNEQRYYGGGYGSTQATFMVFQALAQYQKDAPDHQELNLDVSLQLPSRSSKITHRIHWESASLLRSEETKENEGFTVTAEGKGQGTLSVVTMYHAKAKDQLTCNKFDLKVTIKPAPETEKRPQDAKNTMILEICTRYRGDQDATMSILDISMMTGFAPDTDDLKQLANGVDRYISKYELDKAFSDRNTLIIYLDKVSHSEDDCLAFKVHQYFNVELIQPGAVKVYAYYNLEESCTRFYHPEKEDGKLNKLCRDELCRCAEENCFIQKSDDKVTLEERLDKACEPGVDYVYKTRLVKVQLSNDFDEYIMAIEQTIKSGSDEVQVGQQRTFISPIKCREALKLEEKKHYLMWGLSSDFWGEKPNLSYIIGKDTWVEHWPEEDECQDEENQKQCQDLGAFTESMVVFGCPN
test: cell-based or functional assay
endpointName: EC50 of hC3 cleavage (nM)
# number only, unit nM dropped from output

MTSP-1 Q38H/I41S/D96K/F97G/ins97aV/T98P/F99L/C122S/Q175L/Q192D (enzyme) VVGGTDADEGEWPWQVSLHALGHGHSCGASLISPNWLVSAAHCYIDDRGFRYSDPTQWTAFLGLHDQSQRSAPGVQERRLKRIISHPFFNKGVPLDYDIALLELEKPAEYSSMVRPISLPDASHVFPAGKAIWVTGWGHTQYGGTGALILQKGEIRVINQTTCENLLPQLITPRMMCVGFLSGGVDSCDGDSGGPLSSVEADGRIFQAGVVSWGDGCAQRNKPGVYTRLPLFRDWIKENTGV ... 22

Continue with the binder presented below.
Endpoint output: EC50 of hC3 cleavage of MTSP-1 ins97aL/F97Q/T98G/F99L/C122S/Q175M/Q192S/D217I (enzyme) VVGGTDADEGEWPWQVSLHALGQGHICGASLISPNWLVSAAHCYIDDRGFRYSDPTQWTAFLGLHDQSQRSAPGVQERRLKRIISHPFFNDQLGLDYDIALLELEKPAEYSSMVRPISLPDASHVFPAGKAIWVTGWGHTQYGGTGALILQKGEIRVINQTTCENLLPQMITPRMMCVGFLSGGVDSCSGDSGGPLSSVEADGRIFQAGVVSWGIGCAQRNKPGVYTRLPLFRDWIKENTGV . Value?
6.67
